- measurementDescription: Toxicity liver stage against HepG2, at 10uM
- Type: cell-based
- Parameters: test concentration 10 uM, cell line HepG2-A16-CD81EGFP
- assayConditions: human, HepG2-A16-CD81EGFP cells; read-out: INHIBITION
Quick reference for cytotoxicity at 10 µM among some compounds
Write the value in % as a bare number.

Indicate the recorded cytotoxicity at 10 µM value for this compound: Cc1[nH]c2ccc(CNC(=O)c3ccc(CN4CCCC4)o3)cc2c1C
-2.5

Please report cytotoxicity at 10 µM for the following compound: CCCc1cncnc1N1CCC(NCc2cc3ccccc3[nH]2)CC1
15.8

Return value of cytotoxicity at 10 µM for input Cc1ccc(CCC(=O)N2CCC(Nc3cccnn3)CC2)cc1 , no commentary.
-5.36

Read off the recorded cytotoxicity at 10 µM for CCC(C)NS(=O)(=O)c1ccc(C(=O)N(C)C2(C#N)CCC2)cc1 (configuration not stated)
16.1

* * *

- measurementDescription: Toxicity liver stage against HepG2, at 10uM
- Type: cell-based
- Set-up: test concentration 10 uM, cell line HepG2-A16-CD81EGFP
- assayConditions: human, HepG2-A16-CD81EGFP cells; read-out: INHIBITION
Listing of entries alongside the reported cytotoxicity at 10 µM.
Give just the numeric value; % need not be written.

Here's what some known entries look like.
CC(C)n1ccc(=O)nc1SC1CCN(c2ccccc2F)C1=O (stereo unspecified)    11.8
CCNc1ncc(CN(Cc2ccccc2)CC(C)CO)cn1 (stereo unspecified)    6.33
Cn1nc(C2CCN(C(=O)CCN3CCOCC3)CC2)c2cccnc21    -13.8
N#CCCN(c1ccccc1)S(=O)(=O)CC1CCCCO1 (stereo unspecified)    -4.69
CS(=O)(=O)NCC1Cc2ccccc2O1 (stereo unspecified)    2.01
Cc1noc([C@H]2COC[C@H]3CN(C(=O)Cc4cccs4)C[C@H]32)n1    3.3
COc1ccccc1C(O)CNC(=O)Nc1ncccc1C (stereo unspecified)    -8.65
Cc1nn(CCO)c(C)c1CNCc1cccnc1N(C)C    -9.89

Give cytotoxicity at 10 µM for COc1ccc(-c2nc(C#N)c(N(C)C)o2)cc1S(=O)(=O)N1CCCC1
-0.773

Give a short answer stating reported cytotoxicity at 10 µM for COC(=O)c1cccn1C1CCN(C(=O)c2cn[nH]c2C)CC1 .
-7.64

Give the reported value of cytotoxicity at 10 µM for this record: O=C(c1ccc(O)c(Cl)c1)N1C[C@@H](CN2CCCCCC2)[C@@H](CO)C1
1.89

Write down cytotoxicity at 10 µM measured for item Cn1cc(N2CC[C@@H]3CN(Cc4ccncc4)C[C@H]3C2=O)cn1
-103

Please supply the value of reported cytotoxicity at 10 µM for the item CN1CCO[C@@H]2CN(C(=O)c3ccc4ncccc4c3)CC[C@@H]2C1
-112

* * *

Listing of recorded cytotoxicity at 10 µM by entry.
- measurementDescription: Toxicity liver stage against HepG2, at 10uM
- Format: cell-based
- Set-up: test concentration 10 uM, cell line HepG2-A16-CD81EGFP
- assayConditions: human, HepG2-A16-CD81EGFP cells; read-out: INHIBITION
Note: unit % is implicit; provide only the numeric part.

Find the measured cytotoxicity at 10 µM of Cn1cccc1C(=O)N1CC[C@H]2[C@@H]1CCC(=O)N2CC1CC1 and report it.
-11.1

Please report cytotoxicity at 10 µM for the following compound: O=C1C[C@@H]2CCN(Cc3ccccc3)C[C@@H]2CCN1C1CCCCC1
5.17

Look up and state reported cytotoxicity at 10 µM for CN1CC(Nc2nc3c(cnn3-c3ccccc3)c(=O)[nH]2)CCC1=O (centres undefined)
-2.75

Please look at this compound and report its cytotoxicity at 10 µM: COc1cccc(-n2c(C)cc(C(=O)NCCCC(N)=O)c2C)c1
-11.9

Entry CCS(=O)(=O)NCC1CCN(c2cnccn2)CC1 needs its cytotoxicity at 10 µM filled in; supply it.
10.3

Could you please provide reported cytotoxicity at 10 µM for CC(=O)NCc1cncc(C2CCCN2C2CCOCC2)n1 (centres undefined) ? Thanks!
2.15

Give the value of cytotoxicity at 10 µM reported for the following: CC(c1ccco1)N(C)Cc1cccc(C(=O)Nc2nccn2C)c1 (centres undefined)
-7.33

Tell me its cytotoxicity at 10 µM given CCSCCn1c(=O)n(Cc2ccc(F)cc2)c2ncc(C(=O)O)cc21 as the entry.
-2.54

Return the recorded cytotoxicity at 10 µM value; entry: CCc1nc(C)ncc1C(=O)N1CCN(CC)c2ccccc21
-10.1

Entry source: ChEMBL document CHEMBL4513216
